Hello, the source for this data is PubChem BioAssay (NCATS), in case you need it.

Tested on: CP203
Test: qHTS profiling for inhibitors of Plasmodium falciparum proliferation (AID 504749); note: nearly all actives have a fitted effect of over 60% in size
Details: P. falciparum in erythrocytes, SYBR Green DNA, 72 h; series mostly up to 28.7 µM
Results filed as inconclusive are left out. Calls of active or inactive are those of the source. Calls come from the whole dose curve; as a rule, active = well fitted inhibition curve with a large enough effect; inconclusive = small, poorly fitted or top-dose-only effect; inactive = flat fitted curve, though single readings scatter. Numbered stars: 1 amine (or outer) side, 2 acyl side, 3 side chain; on linkers, the order of the positions; unused ones are H or OH. Bridge positions count the residues as written; N and C are the ends. Square brackets hold non-standard residues; d marks the D form. Peptide text beside a SMILES is read from it. * marks the point of attachment. ξ: configuration not given here. ΔAla(Z-3-ureido) = NC(=O)N/C=C(\N)C(=O)O; X1 = NC1=NCCC(C(N[*:1])C(=O)[*:2])N1; ξβ3hOrn = NCCCC(N)CC(=O)*; Dap = NC[CH](N)C(=O)O
Write down one outcome, taken from active, inactive

// known answers, use as guide
>  <molecule>
CC(C)CC(NC(=O)C(COC(C)(C)C)NC(=O)C(Cc1ccc(O)cc1)NC(=O)C(CO)NC(=O)C(Cc1c[nH]c2ccccc12)NC(=O)C(Cc1cnc[nH]1)NC(=O)C1CCC(=O)N1)C(=O)NC(CCCN=C(N)N)C(=O)N1CCCC1C(=O)NNC(N)=O (stereo not drawn)

>  <group>
inactive

$$$$
>  <molecule>
CC(C)C[C@H](NC(=O)[C@@H](Cc1c[nH]c2ccccc12)NC(=O)[C@@H](Cc1ccc(O)cc1)NC(=O)[C@@H](CO)NC(=O)[C@@H](Cc1c[nH]c2ccccc12)NC(=O)C(Cc1cnc[nH]1)NC(=O)C1CCC(=O)N1)C(=O)N[C@@H](CCCN=C(N)N)C(=O)N1CCC[C@@H]1C(=O)NCC(N)=O (stereo partly drawn)

>  <group>
inactive

$$$$
>  <molecule>
Cn1cc(O)nc1NC(=O)Nc1cccc(Cl)c1

>  <group>
inactive

$$$$
>  <molecule>
CC(=O)OCC1=C(C(=O)O)N2C(=O)C(NC(=O)Cc3ccccc3)C2SC1 (stereo not drawn)

>  <group>
inactive

$$$$
>  <molecule>
CCC(C)C1NC(=O)C(Cc2ccc(O)cc2)NC(=O)C(N)CSSCC(C(=O)N2CCCC2C(=O)NC(CC(C)C)C(=O)NCC(N)=O)NC(=O)C(CC(N)=O)NC(=O)C(CCC(N)=O)NC1=O (stereo not drawn)

>  <group>
inactive

$$$$

Test call, this molecule: NCCCC(N)CC(=O)NCC1NC(=O)C(CO)NC(=O)C(N)CNC(=O)C(C2CCN=C(N)N2)NC(=O)/C(=C/NC(N)=O)NC1=O (stereo not drawn) (H-[Dap]S[Dap](ξβ3hOrn)[ΔAla(Z-3-ureido)][X1]; lactam 1-C; configuration not given here)
inactive
